P38 alpha kinase % inhib @ conc. values by entry
- study.target: human p38 kinase alpha (Homo sapiens)
- Construct: GST (N, cleaved yes); made in house; host or cells: E. coli DH10B
- test.method.notes: p38 kinase in vitro assay, phosphorylation of biotinylated PHAS-I with 32P-ATP
- Format: biochemical
- assay.conditions: @ 10.0 uM
Numbers only here, please. The scale is % @.

>>> print(df.to_string())
                                   compound  reported_value
0  Cc1c(-c2ccncc2)c(-c2ccc(F)cc2)nn1CC(=O)NC1CCCc2ccccc21 (stereo not drawn) [Example B-2326]            76.0
1  Cc1c(-c2ccncc2)c(-c2ccc(F)cc2)nn1CC(=O)NC1CCN(CCc2c[nH]c3ccccc23)CC1 [Example B-2355]            84.0
2  CCOC(=O)CC(C)NC(=O)Cn1nc(-c2ccc(F)cc2)c(-c2ccncc2)c1C (stereo not drawn) [Example B-2343]            43.0
3  Cc1c(-c2ccncc2)c(-c2ccc(F)cc2)nn1CC(=O)NC1CCN(Cc2ccccc2)C1 (stereo not drawn) [Example B-2338]            73.0
4  Cc1c(-c2ccncc2)c(-c2ccc(F)cc2)nn1CC(=O)N(Cc1ccco1)CC(C)C [Example B-2378]            48.0

Tell me its P38 alpha kinase % inhib @ conc. given COC(=O)[C@H](CCSC)NC(=O)Cn1nc(-c2ccc(F)cc2)c(-c2ccncc2)c1C [Example B-2324] as the entry.
58.0

* * *

pIC50 values by entry
- study.target: human p38 kinase alpha (Homo sapiens)
- Construct: GST (N, cleaved yes); made in house; host or cells: E. coli DH10B
- test.method.notes: p38 kinase in vitro assay, phosphorylation of biotinylated PHAS-I with 32P-ATP
- Assay type: biochemical
- assay.conditions: in vitro P38-alpha kinase inhibition; read-out: P38 alpha kinase IC50
Keep in mind that pIC50 stands for -log10 of concentration in molar terms.

Tell me its pIC50 given CC(NC(=O)C1CCC1)c1[nH]nc(-c2ccc(F)cc2)c1-c1ccncc1 (stereo not drawn) [Example B-0537] as the entry.
5.46

Tell me its pIC50 given CC(NC(=O)c1cccc(F)c1)c1[nH]nc(-c2ccc(F)cc2)c1-c1ccncc1 (stereo not drawn) [Example B-0694] as the entry.
6.21

Tell me its pIC50 given O=C(NC(Cc1ccccc1)c1[nH]nc(-c2ccc(F)cc2)c1-c1ccncc1)c1ccc(F)cc1 (stereo not drawn) [Example B-0832] as the entry.
5.83

Tell me its pIC50 given COCC(=O)NC(C)c1[nH]nc(-c2ccc(F)cc2)c1-c1ccncc1 (stereo not drawn) [Example B-0543] as the entry.
5.81

Tell me its pIC50 given Cc1cccc(C(=O)NC(C)c2[nH]nc(-c3ccc(F)cc3)c2-c2ccncc2)c1 (stereo not drawn) [Example B-0692] as the entry.
6.42

Tell me its pIC50 given CC(NC(=O)N(C)c1ccccc1)c1[nH]nc(-c2ccc(F)cc2)c1-c1ccncc1 (stereo not drawn) [Example B-0586] as the entry.
6.09

Tell me its pIC50 given Cc1cccc(C)c1NC(=O)NC(C)c1[nH]nc(-c2ccc(F)cc2)c1-c1ccncc1 (stereo not drawn) [Example B-0588] as the entry.
4.89

Tell me its pIC50 given CC(NS(=O)(=O)c1ccc2ccccc2c1)c1[nH]nc(-c2ccc(F)cc2)c1-c1ccncc1 (stereo not drawn) [Example B-0617] as the entry.
7.35

Tell me its pIC50 given CCc1ccc(S(=O)(=O)NCCc2[nH]nc(-c3ccc(F)cc3)c2-c2ccncc2)cc1 [Example B-1088] as the entry.
6.14

Tell me its pIC50 given CC(=O)OC(C)C(=O)NC(Cc1ccccc1)c1[nH]nc(-c2ccc(F)cc2)c1-c1ccncc1 (stereo not drawn) [Example B-0841] as the entry.
6.49

Tell me its pIC50 given Cc1noc(C)c1C(=O)NCCc1[nH]nc(-c2ccc(F)cc2)c1-c1ccncc1 [Example B-1157] as the entry.
6.59

Tell me its pIC50 given CC(C)=CC(=O)NC(Cc1ccccc1)c1[nH]nc(-c2ccc(F)cc2)c1-c1ccncc1 (stereo not drawn) [Example B-0846] as the entry.
5.74

Tell me its pIC50 given COc1ccc(CC(=O)NC(C)c2[nH]nc(-c3ccc(F)cc3)c2-c2ccncc2)cc1 (stereo not drawn) [Example B-0549] as the entry.
5.65

Tell me its pIC50 given Cc1cc(C)c(S(=O)(=O)NC(C)c2[nH]nc(-c3ccc(F)cc3)c2-c2ccncc2)c(C)c1 (stereo not drawn) [Example B-0616] as the entry.
6.42

Tell me its pIC50 given CC(NC(=O)c1ccc(C(F)(F)F)cc1)c1[nH]nc(-c2ccc(F)cc2)c1-c1ccncc1 (stereo not drawn) [Example B-0704] as the entry.
5.66

* * *

inhibition at 1 µM values by entry
- study.target: human p38 kinase alpha (Homo sapiens, UniProt Q16539)
- Construct: GST (N, cleaved yes); made in house; host or cells: E. coli DH10B
- Sequence (Q16539 whole entry): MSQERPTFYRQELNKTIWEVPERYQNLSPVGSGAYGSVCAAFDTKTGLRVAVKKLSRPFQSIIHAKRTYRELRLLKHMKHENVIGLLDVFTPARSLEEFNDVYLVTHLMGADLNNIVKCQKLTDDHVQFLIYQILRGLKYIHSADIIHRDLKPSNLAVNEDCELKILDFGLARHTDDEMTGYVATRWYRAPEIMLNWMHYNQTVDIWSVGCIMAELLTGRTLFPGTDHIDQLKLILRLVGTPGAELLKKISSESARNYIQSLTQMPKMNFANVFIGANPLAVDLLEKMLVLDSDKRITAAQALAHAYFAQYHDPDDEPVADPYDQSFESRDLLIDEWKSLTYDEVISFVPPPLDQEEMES
- test.method.notes: p38 kinase in vitro assay, phosphorylation of biotinylated PHAS-I with 32P-ATP
- Format: biochemical
- assay.conditions: @ 1.0 uM; read-out: P38 alpha kinase % inhib @ conc.
Numbers only here, please. The scale is %.

                                   compound                              study_target  reported_value
0  O=C(NCc1[nH]nc(-c2ccc(F)cc2)c1-c1ccncc1)c1ccc([N+](=O)[O-])o1  human p38 kinase alpha (Homo sapiens, UniProt Q16539)              94
1  O=C(NCc1[nH]nc(-c2ccc(F)cc2)c1-c1ccncc1)c1cc(Cl)cc(Cl)c1  human p38 kinase alpha (Homo sapiens, UniProt Q16539)              73
2  CCCCC(=O)NCc1[nH]nc(-c2ccc(F)cc2)c1-c1ccncc1  human p38 kinase alpha (Homo sapiens, UniProt Q16539)              79
3  O=C(NCc1[nH]nc(-c2ccc(F)cc2)c1-c1ccncc1)c1ccccc1C(F)(F)F  human p38 kinase alpha (Homo sapiens, UniProt Q16539)              94
4  O=C(NCc1[nH]nc(-c2ccc(F)cc2)c1-c1ccncc1)c1ccc(F)cc1  human p38 kinase alpha (Homo sapiens, UniProt Q16539)              94
5  CCC(Oc1ccccc1)C(=O)NCc1[nH]nc(-c2ccc(F)cc2)c1-c1ccncc1 (stereo not shown)  human p38 kinase alpha (Homo sapiens, UniProt Q16539)              94

Query compound follows.
Tell me its inhibition at 1 µM given O=C(NCc1[nH]nc(-c2ccc(F)cc2)c1-c1ccncc1)c1cc2ccccc2s1 as the entry.
91

* * *

- study.target: human p38 kinase alpha (Homo sapiens)
- Construct: GST (N, cleaved yes); made in house; host or cells: E. coli DH10B
- test.method.notes: p38 kinase in vitro assay, phosphorylation of biotinylated PHAS-I with 32P-ATP
- Type: biochemical
- assay.conditions: @ 1.0 uM
P38 alpha kinase % inhib @ conc. (uM) values by entry
Numbers only here, please. The scale is % @.

Reference set (5 entries):
>>> print(df.to_string())
                                   molecule  reported_value
0  O=C(NCCc1[nH]nc(-c2ccc(F)cc2)c1-c1ccncc1)NCc1ccccc1 [Example B-0939]            78.0
1  O=C(NCCc1ccccc1)NCCc1[nH]nc(-c2ccc(F)cc2)c1-c1ccncc1 [Example B-1044]            94.0
2  O=S(=O)(NCCc1[nH]nc(-c2ccc(F)cc2)c1-c1ccncc1)c1ccc(F)cc1 [Example B-1013]            85.0
3  O=C(NCCc1[nH]nc(-c2ccc(F)cc2)c1-c1ccncc1)Nc1ccc(Br)cc1 [Example B-0938]            51.0
4  O=C(NCCc1[nH]nc(-c2ccc(F)cc2)c1-c1ccncc1)NC1CC1c1ccccc1 (racemic) [Example B-0941]            81.0

Tell me its P38 alpha kinase % inhib @ conc. (uM) given COc1cccc(NC(=O)NCCc2[nH]nc(-c3ccc(F)cc3)c2-c2ccncc2)c1 [Example B-0948] as the entry.
68.0

Tell me its P38 alpha kinase % inhib @ conc. (uM) given O=C(NCCCc1[nH]nc(-c2ccc(F)cc2)c1-c1ccncc1)c1cnc2ccccc2n1 [Example B-1189] as the entry.
68.0

Tell me its P38 alpha kinase % inhib @ conc. (uM) given C[C@@H](NC(=O)NCCc1[nH]nc(-c2ccc(F)cc2)c1-c1ccncc1)c1ccccc1 [Example B-1045] as the entry.
78.0

* * *

- study.target: human p38 kinase alpha (Homo sapiens, UniProt Q16539)
- Construct: GST (N, cleaved yes); made in house; host or cells: E. coli DH10B
- test.method.notes: p38 kinase in vitro assay, phosphorylation of biotinylated PHAS-I with 32P-ATP
- Format: biochemical
- assay.conditions: in vitro P38-alpha kinase; read-out: P38 alpha kinase IC50
readout.type: pIC50
Keep in mind that pIC50 stands for -log10 of concentration in molar terms.

>>> df
                                chem_smiles  reported_value
0  CC(C)C(=O)N1CCC(c2[nH]nc(-c3ccc(F)cc3)c2-c2ccncc2)CC1            7.52
1  O=C(NCCCc1[nH]nc(-c2ccc(F)cc2)c1-c1ccncc1)c1c(F)cccc1C(F)(F)F            6.74

Tell me its pIC50 given O=C(c1cc(C(F)(F)F)ccc1F)N1CCC(c2[nH]nc(-c3ccc(F)cc3)c2-c2ccncc2)CC1 as the entry.
6.55

Tell me its pIC50 given O=C(c1ccc(F)c(C(F)(F)F)c1)N1CCC(c2[nH]nc(-c3ccc(F)cc3)c2-c2ccncc2)CC1 as the entry.
6.57

Tell me its pIC50 given O=S(=O)(NCCCc1[nH]nc(-c2ccc(F)cc2)c1-c1ccncc1)c1ccc(S(=O)(=O)c2ccccc2)s1 as the entry.
6.51

Tell me its pIC50 given CN(C)S(=O)(=O)NCCCc1[nH]nc(-c2ccc(F)cc2)c1-c1ccncc1 as the entry.
8.00
